B1: TPR t1 (parent)
chain: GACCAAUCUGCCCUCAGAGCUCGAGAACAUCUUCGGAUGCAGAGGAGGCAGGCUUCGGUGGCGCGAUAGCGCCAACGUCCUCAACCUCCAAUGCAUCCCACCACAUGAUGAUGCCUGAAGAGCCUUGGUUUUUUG

# Variants of: B1
# MEASUREMENT NOTES: polymerase ribozyme fitness, log enrichment relative to wild type (log ratio); higher = more active; in vitro selection for triplet polymerase activity
Decision: polymerase ribozyme fitness (log ratio) >= -2 yields class 1, all other cases yield class 0.

MUTATION DESCRIPTOR	GROUP LABEL
A26G C28A G113A	class 0
A105U G113A	class 0
G60A A118U U126A	class 0
G17A G48U G69C C88G	class 0
G10U C11U	class 1
C12U C13U	class 1
C40A G45A	class 0
G58A U81C C85G	class 0
C8U C70A	class 1
A27G C28A G52U	class 0
C12G U14A	class 1
A37C U55C	class 1
C102U A119G	class 1
G10U U78C	class 1
C3A C79U C124G	class 1
G93A U130G	class 1
C15U A29U C40A A46C	class 0
A24U G45A G60A C115U	class 0
A66G	class 1
A41C U106C A111C	class 0
U9G C80A U87C C114U	class 0
A37U A43C G71U C79U U112A U116G U134C	class 0
